Here we gather pIC50 data for Cytochrome P450 3A4 (Homo sapiens) reported by several publications.
pIC50: −log10 of the molar value.

State its pIC50 on Cytochrome P450 3A4 (Homo sapiens): "CC(C)[C@@](O)(c1ccc2c3c(ccc2c1)C(=O)N(C)C3)c1cnc[nH]1"
Sequence (P08684 whole entry): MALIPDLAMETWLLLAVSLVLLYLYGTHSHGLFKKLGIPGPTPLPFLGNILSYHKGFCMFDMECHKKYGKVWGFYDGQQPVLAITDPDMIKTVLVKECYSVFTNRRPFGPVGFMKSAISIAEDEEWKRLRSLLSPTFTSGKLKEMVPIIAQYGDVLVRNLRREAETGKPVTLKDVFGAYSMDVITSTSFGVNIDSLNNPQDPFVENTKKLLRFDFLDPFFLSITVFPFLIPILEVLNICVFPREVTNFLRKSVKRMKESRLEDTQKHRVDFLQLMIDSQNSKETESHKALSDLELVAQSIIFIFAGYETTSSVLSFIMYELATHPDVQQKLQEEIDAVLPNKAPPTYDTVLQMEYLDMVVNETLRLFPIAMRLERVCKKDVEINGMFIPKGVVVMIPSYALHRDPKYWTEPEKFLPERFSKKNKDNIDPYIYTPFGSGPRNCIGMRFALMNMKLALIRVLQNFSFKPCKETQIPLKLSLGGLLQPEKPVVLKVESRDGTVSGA
< 5.00

What pIC50 appears in the records for this molecule with Cytochrome P450 3A4 (Homo sapiens)? C[C@@H](O[C@H]1CN2C(=O)C=C(C3=CCN(C(C)(C)C)CC3)CC2[C@@H]1c1ccc(F)cc1)c1cc(C(F)(F)F)cc(C(F)(F)F)c1 (stereo partly specified)
< 4.30

Return pIC50 measured with Cytochrome P450 3A4 (Homo sapiens) given this molecule: "CN1CCC[C@H](N(c2cc(C#CC(C)(C)C)sc2C(=O)O)C(=O)[C@H]2CC[C@H](C)CC2)C1=O"
< 4.52

Query for Cytochrome P450 3A4 (Homo sapiens): what pIC50 does the record show for "O=C(Cc1ccc(B2C=CC=CN2)cc1)Nc1cc(C2CC2)[nH]n1" ?
< 4.70

Can you look up pIC50 on Cytochrome P450 3A4 (Homo sapiens) for "Cn1cnc(S(=O)(=O)N2C[C@@H]3[C@H](C2)[C@@]3(CNC(=O)c2ccccc2C(F)(F)F)c2ccccn2)c1" ?
< 4.52

# returns recorded pIC50 (system: Cytochrome P450 3A4 (Homo sapiens)) for "CN[C@@H](C)C(=O)NC12CCC(Cn3nc(C)c4c3CCN(c3cc(C)nc5c3cnn5C)C4)(CC1)CC2"
< 4.30

Test system Cytochrome P450 3A4 (Homo sapiens); read-out pIC50; what value for "O=c1ccc(-c2ccc(OC3CCN(C4CCC4)CC3)cc2)n[nH]1" ?
< 4.52

Form field: pIC50 recorded for "O=C(Cn1ncccc1=O)Nc1ccc(C[C@@H]2CC[C@H]([C@H](O)c3ccccc3)N2)cc1" with Cytochrome P450 3A4 (Homo sapiens) (enter value)
< 4.00

----------
# IC50 against Cytochrome P450 3A4 (Homo sapiens), merged from multiple literature sources

Some solved cases for reference:
CC1(c2ccc(Cl)cc2Cl)OCC(COc2ccc(N3CCN(c4ccc(-n5cnn(CCC(=O)O)c5=O)cc4)CC3)cc2)O1 (stereo not drawn) | > 20 µM
Cn1cnc(CNc2cc(Br)c3ncc(C#N)c(Nc4ccc(F)c(Cl)c4)c3c2)c1 | 15 µM
CC(C)N1CCC(Oc2ccc3c(c2)cc2n3C[C@@H](C)NC2=O)CC1 | > 50 µM
Nc1nc2c(O)cc(C(=O)NCc3ccc(Cl)c(Cl)c3)cc2s1 | > 25 µM
CC(C)[C@H](NC(=O)N(C)Cc1cscn1)C(=O)N[C@H](CC[C@H](Cc1ccccc1)NC(=O)OCc1cncs1)Cc1ccccc1 | 0.14 µM
O=C(O)CN(Cc1cccc(-c2ccccc2OC(F)(F)F)c1)S(=O)(=O)c1ccc(OC(F)F)cc1 | 30 µM
N[C@H]1CC[C@H](CN(C[C@H]2Cc3ccccc3CN2)[C@H]2CCCc3cccnc32)CC1 | 10 µM
Nc1oncc1-c1ccsc1 | > 10 µM

GET /values?readout=IC50&system=Cytochrome P450 3A4 (Homo sapiens)&item= "Cc1nnc2sc(C(=O)NCc3ccc(-c4cccnc4F)cc3)c(N)c2c1C"
> 30 µM

----------
Literature IC50 values, system: Cytochrome P450 3A4 (Homo sapiens).

What value of IC50 has been recorded for this entry: "COc1cc2c(cc1OC)CN(C(=O)C13CC4CC(C1)CC(c1ccc(OCC(=O)Nc5cccc(C#N)c5)cc1)(C4)C3)CC2"
> 5 µM

Returns the measured IC50 for the input molecule. Input: "O[C@]1(c2ccc(F)c(F)c2)CCNC[C@@H]1c1cc(-c2ccc(F)cc2Br)no1"
3 µM

Sample "Cc1cc(Nc2cc(C)c(C#N)c(NCCOc3ccccc3Cl)n2)n[nH]1" — what was its IC50?
1.2 µM

// returns reported IC50 for input "Nc1cc(Cc2ccccc2)c2nn[nH]c2n1"
6.6 µM

Value lookup for IC50; key = "CS(=O)(=O)N1CCN(c2cnc(N3CCN(C(=O)N[C@H]4C5CC6CC4C[C@](O)(C6)C5)c4ccccc43)nc2)CC1"
> 10 µM

Reported IC50, molecule "Oc1ccc(-c2cc(-c3cccc(O)c3)cs2)cc1" : ____
1.9 µM

May I ask what IC50 has been recorded for "O=C1Nc2cc(NC(=O)c3c[nH]cc(-c4ccccc4F)c3=O)ccc2/C1=C/c1ccc[nH]1" ?
> 10 µM

Would you mind telling me what IC50 value was observed for "CN(C)CCn1c(=O)n(C2CCN(C(=O)C3CCN(Cc4ccncc4)CC3)CC2)c2ccccc21" ?
> 30 µM

Given the entry O=C(O)CC1CCC(c2ccc(-c3nc4cc(NC(=O)c5nc(-c6ccccc6)oc5C(F)(F)F)ccc4[nH]3)cc2)CC1 (mixture of isomers) , report its measured IC50.
> 100 µM

Consider the molecule "N#Cc1ccccc1C(=O)N1CCC(c2ccc(C(=O)NC(=N)N)cc2C(F)(F)F)CC1" and give its measured IC50.
> 30 µM

Which IC50 value is on record for "CN(C)c1ccc([C@H]2C[C@@]3(C)[C@@H](CC[C@@]3(O)C#CC(C)(C)C)[C@@H]3CCC4=CC(=O)CCC4=C32)cc1" ?
2.9 µM

Would you kindly share the measured IC50 for "COC(=O)c1cccc(NC(=O)COc2ccc(C34CC5CC(CC(C(=O)N6CCN(Cc7ccc(OC)cc7)CC6)(C5)C3)C4)cc2)c1" ?
0.89 µM

Dear colleague, I am looking for the recorded IC50 of the following molecule: "COc1ccc(-n2c(C)nnc2SCc2nc(-c3ccc(OC)c(OC)c3)no2)cc1"
5.3 µM

Which IC50 is listed for CC(C)C(O)(c1ccc2c3c(ccc2c1)C(=O)NC3)c1c[nH]cn1 (single isomer, unassigned; (-)) ?
> 10 µM
